molecular target: Polyunsaturated fatty acid 5-lipoxygenase (Homo sapiens); assay: In vitro inhibition of LTB4 biosynthesis by human leukocytes; format: functional
Note to self: use Condition met only for IC50 readings below 90 nM; a reading exactly at 90 nM still gets Condition not met.

Examples with answers:
O=C1OCc2c1cc1cc(OCc3ccccc3)ccc1c2-c1ccccc1 = Condition not met
O=C1OCc2cc3cc4c(cc3c(-c3ccc5c(c3)OCO5)c21)OCO4 [TAIWANIN C] = Condition not met
O=C1OCc2c1cc1ccccc1c2-c1ccncc1 = Condition not met

Prompt line: Report whether reported IC50 is lower than 90 nM (strictly) for `COc1ccc2c(-c3ccccc3)c3c(cc2c1)C(=O)OC3`
Response line: Condition not met

Prompt line: Next record, please: `O=C1OCc2c1cc1cc3c(cc1c2-c1ccc2c(c1)OCO2)OCO3`
Response line: Condition met

* * *

molecular target: Polyunsaturated fatty acid 5-lipoxygenase (Homo sapiens, UniProt P09917); experiment: In vitro inhibition of human recombinant lipoxygenase enzyme
measureName: IC50 (µM)
Provide the reading as a plain figure in µM.

Prompt line: So what's the measured IC50 for this one? `O=C1OCc2c1cc1cc(OCc3ccccc3)ccc1c2-c1ccccc1`
Response line: 3

* * *

Target: Polyunsaturated fatty acid 5-lipoxygenase (Homo sapiens)
Sequence (P09917 whole entry): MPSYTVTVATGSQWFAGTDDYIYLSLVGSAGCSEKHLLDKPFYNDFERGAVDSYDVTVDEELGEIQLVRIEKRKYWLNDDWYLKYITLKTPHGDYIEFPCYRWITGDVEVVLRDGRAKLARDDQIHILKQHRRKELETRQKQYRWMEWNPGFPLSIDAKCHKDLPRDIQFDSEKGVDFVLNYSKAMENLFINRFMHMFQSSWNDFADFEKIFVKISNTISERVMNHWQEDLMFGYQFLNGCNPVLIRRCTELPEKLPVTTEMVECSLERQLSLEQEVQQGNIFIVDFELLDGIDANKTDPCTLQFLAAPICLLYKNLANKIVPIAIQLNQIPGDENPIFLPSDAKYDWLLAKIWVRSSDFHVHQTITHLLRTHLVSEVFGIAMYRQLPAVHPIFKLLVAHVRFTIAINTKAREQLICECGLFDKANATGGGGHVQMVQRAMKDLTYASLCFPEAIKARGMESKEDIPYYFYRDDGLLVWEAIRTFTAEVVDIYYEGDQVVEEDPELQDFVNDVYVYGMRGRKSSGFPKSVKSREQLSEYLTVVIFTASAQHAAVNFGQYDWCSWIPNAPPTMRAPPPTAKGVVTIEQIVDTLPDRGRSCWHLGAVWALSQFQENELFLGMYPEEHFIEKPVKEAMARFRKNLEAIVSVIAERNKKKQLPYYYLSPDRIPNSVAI
Experiment: In vitro inhibition of LTB4 biosynthesis by human leukocytes
Format: functional
Parameter pIC50: see the listing below.
The read-out pIC50 is expressed as -log10 of concentration in moles per litre.

c1cc2c(cc1-c1c3c(cc4cc5c(cc14)OCO5)COC3)OCO2 = 6.64
O=C1OC(=O)c2c1cc1cc3c(cc1c2-c1ccc2c(c1)OCO2)OCO3 = 6.18
O=C1NCc2c1cc1cc3c(cc1c2-c1ccc2c(c1)OCO2)OCO3 = 5.38
OCc1cc2cc3c(cc2c(-c2ccc4c(c2)OCO4)c1CO)OCO3 = 5.66
COc1cccc(-c2c3c(cc4ccccc24)C(=O)OC3)c1 = 7.38

Prompt line: So what's the measured pIC50 for this one? `COc1ccc(-c2c3c(cc4ccccc24)C(=O)OC3)cc1`
Response line: 5.85

Prompt line: Next record, please: `O=C1OCc2c1cc1ccccc1c2-c1ccccc1`
Response line: 6.60

Prompt line: Next record, please: `COc1ccc2cc3c(c(-c4ccccc4)c2c1)COC3=O`
Response line: 6.17

Prompt line: Next record, please: `O=C1OCc2c1cc1sccc1c2-c1ccccc1`
Response line: 6.35

Prompt line: Next record, please: `O=C1OCc2c1cc1ccncc1c2-c1ccccc1`
Response line: 5.42

Prompt line: Next record, please: `COc1cc2cc3c(c(-c4ccc5c(c4)OCO5)c2cc1OC)COC3=O`
Response line: 6.12
